- TESTED_ON: HLA-A*03:19
- ASSAY_PROTOCOL: IEDB peptide-MHC binding, purified MHC/competitive/fluorescence; filed as Kd, often an IC50 or EC50 that approximates it; bounds were set here for any values at or beyond the usual limits of such assays
- MEASUREMENT_PARAMETERS: source organism: Shigella boydii CDC 3083-94
QUANTITY: Kd (nM)

{"columns": ["BIOPOLYMER_SEQUENCE", "RESULT_VALUE"],
 "data": [
  ["GMMRWCMPV", 1130]
]}

----------
- TESTED_ON: HLA-A*66:01
- ASSAY_PROTOCOL: IEDB peptide-MHC binding, purified MHC/competitive/fluorescence; filed as Kd, often an IC50 or EC50 that approximates it; bounds were set here for any values at or beyond the usual limits of such assays
- MEASUREMENT_PARAMETERS: source organism: Rickettsia akari str. Hartford
pKd: −log10 of the molar value.
QUANTITY: pKd

{"columns": ["BIOPOLYMER_SEQUENCE", "RESULT_VALUE"],
 "data": [
  ["FTARIIIFS", 5.52]
]}
